Tested on: HCT-15 colon
Assay: NCI-60 one-dose screen, 48 h
Settings: 10 µM unless noted
Compounds without any hit were thinned out: in the full panel of roughly 83,000, 20% have a hit. Active and inactive are the calls of the source. The calls were made as follows: active = growth percent below 10; inactive = the rest.
Classes used: active, inactive

- compound: "Cc1ccc(C(SCC(N)C(=O)O)(c2ccccc2)c2ccc(C)cc2)cc1 (stereo not drawn)"
  class_name: "inactive"
- compound: "CC/C=C\\C/C=C\\C[C@H]1C/C=C2/C(=O)C=C[C@@H]2C/C=C\\CCC(=O)O1"
  class_name: "active"
- compound: "C#CCOc1ccc2ncnc(NCc3cccc(NC(=O)CCl)c3)c2c1"
  class_name: "inactive"
- compound: "Cc1ccc2oc(=O)cc(C3c4ccc([nH]4)C(c4cc(=O)oc5ccc(C)cc45)c4ccc([nH]4)C(c4cc(=O)oc5ccc(C)cc45)c4ccc([nH]4)C(c4cc(=O)oc5ccc(C)cc45)c4ccc3[nH]4)c2c1 (stereo not drawn)"
  class_name: "active"
- compound: "Clc1ccc2c(NCCCCNc3nc(N4CCCCC4)nc4ccccc34)ccnc2c1"
  class_name: "active"
- compound: "Nc1n[nH]c2ccc([C@@H]3Nc4ccc5cn[nH]c5c4[C@H]4C5CCC(C5)[C@@H]34)cc12 (stereo partly drawn)"
  class_name: "inactive"
- compound: "Nc1n[nH]c2ccc([C@@H]3Nc4cc5c(cc4[C@H]4C6CCC(C6)[C@@H]34)C(=O)NC5)cc12 (stereo partly drawn)"
  class_name: "inactive"
- compound: "CSc1nc(Nc2cccc(NC(=O)CCl)c2)c(C#N)c(-c2cccc([N+](=O)[O-])c2)n1"
  class_name: "inactive"

====

System: RXF 393 renal
Experiment: NCI-60 one-dose screen, 48 h
Conditions: 10 µM unless noted
About 83,000 compounds went through this panel and 20% of them were active in at least one assay; those are over-represented in the sample as a whole. Activity calls are given as the source filed them. How the source made its calls: active means growth percent below 10; inactive means the rest.
Classes used: active, inactive

- molecule: "O=C1/C(=C/c2ccc3c(c2)OCO3)SC(=S)N1CCc1ccc(O)cc1"
  class_name: "inactive"
- molecule: "Nc1n[nH]c2ccc([C@@H]3Nc4ccc5cn[nH]c5c4[C@H]4C5CCC(C5)[C@@H]34)cc12 (stereo not given in full)"
  class_name: "active"
- molecule: "COc1cccc(/C=C2\\SC(=Nc3ccc(NC(C)=O)cc3)NC2=O)c1OC"
  class_name: "inactive"
- molecule: "COc1ccc(-c2cc(-c3ccc(Nc4ccnc5cc(Cl)ccc45)cc3)nc(N3CCOCC3)n2)cc1"
  class_name: "inactive"
- molecule: "CC/C=C\\C[C@H]1C/C=C2/C(=O)C=C[C@H]2C/C=C\\CCCC(=O)O1"
  class_name: "inactive"
- molecule: "COc1cc(CNc2oc(-c3ccccc3)c(-c3ccccc3)c2C#N)cc(CN2CCN(C)CC2)c1O"
  class_name: "inactive"
- molecule: "COc1cc2nc(N3CCCC3)nc(NCCc3ccccc3)c2cc1OC"
  class_name: "inactive"
- molecule: "O=C1/C(=C/C(Cl)=C/c2ccccc2)SC(=S)N1CCc1ccc(O)cc1"
  class_name: "active"
- molecule: "O=C(Nc1cccc2[nH]c(C(F)(F)F)nc12)c1ccc(-n2cnnn2)cc1"
  class_name: "inactive"
- molecule: "CNC(=O)c1cc(Oc2ccc(NC(=O)Nc3ccc(Cl)c(OC(F)(F)F)c3)c(F)c2)ccn1"
  class_name: "inactive"
- molecule: "CC(=O)Nc1ccc(-n2c(O)c(/C=N/NC(=O)Cc3ccccc3Nc3c(Cl)cccc3Cl)sc2=S)cc1"
  class_name: "inactive"
- molecule: "Nc1ccc(-c2cc3c(NCc4ccccc4)ncnc3s2)cc1"
  class_name: "inactive"
- molecule: "Cc1cc(N2CCOCC2)nc(N[C@@H]2CCC[C@H](Nc3ccnc4cc(Cl)ccc34)C2)n1"
  class_name: "active"
- molecule: "N#CN1CCC[C@H]1C(=O)N1CCc2c(-c3[nH]nc4ncccc34)cccc21"
  class_name: "active"
- molecule: "CC1=CC(C)(C)Nc2ccc(Cc3ccc4c(c3)C(C)=CC(C)(C)N4)cc21"
  class_name: "inactive"
- molecule: "CC(C)(O)c1cn(CCCCN2C(=O)C(=O)c3ccccc32)nn1"
  class_name: "inactive"
- molecule: "Cc1cc(N2CCSCC2)nc(NC2CCCC(Nc3ccnc4cc(Cl)ccc34)C2)n1 (stereo not given)"
  class_name: "active"
- molecule: "O=C(/C=C/c1ccc(C(F)(F)F)cc1)Nc1ccc(C=C2c3ccccc3C(=O)c3ccccc32)cc1"
  class_name: "inactive"
- molecule: "COC(=O)c1ccc(NC(=O)c2ccc(-c3cccc([N+](=O)[O-])c3)o2)cc1"
  class_name: "inactive"
- molecule: "CSc1ccc(-c2n[nH]nc2-c2cc3ccccc3s2)cc1"
  class_name: "inactive"

====

Test system: HCT-116 colon
Experiment: NCI-60 one-dose screen, 48 h (100 = growth as untreated, 0 = no growth, -100 = all killed)
Details: 10 µM unless noted
This is part of a sample that, as a whole, favours compounds with a hit. Of some 83,000 tested, about 20% had one in any assay.
Below, each entry is listed alongside its reported growth.
readout_name: growth (%)

- compound: "CCOc1cc2c(cc1OCC)C(c1cc(OC)c(O)cc1Cl)NCC2 (stereo not given)"
  reported_value: 76.3
- compound: "CCOC(=O)n1cc(-c2nonc2-c2cn(C)c3ncccc23)c2ccccc21"
  reported_value: 80.4
- compound: "COc1ccc(-c2n[nH]nc2-c2csc3ccccc23)cc1OC"
  reported_value: 22.4
- compound: "O=c1cc(CSc2nnc(-c3ccc(F)cc3)o2)c2ccc3ccccc3c2o1"
  reported_value: 93.2
- compound: "O=S(=O)(Nc1ccc(NS(=O)(=O)c2ccccc2)c(Cl)c1)c1ccccc1"
  reported_value: 97.6
- compound: "Clc1ccc2c(NCCNc3nc(N4CCCCC4)nc4ccccc34)ccnc2c1"
  reported_value: -25.4
- compound: "CC1C(/C=N/Nc2ccccc2)C(C#N)(C#N)C1(C#N)C#N (stereo not given)"
  reported_value: 67.3
- compound: "N#Cc1c(N)n(CCNC(=O)c2ccccc2)c2nc3ccccc3nc12"
  reported_value: 102
- compound: "CCN(CC)c1ccc(-c2cc(-c3cc(OC)c(OC)c(OC)c3)nc(N3CCOCC3)c2C#N)cc1"
  reported_value: 10.5
- compound: "CN(C)c1ccc(NC(=O)c2ccc(/C=C/C(=O)c3ncc[nH]3)cc2)cc1"
  reported_value: 46.4

====

Tested on: ACHN renal
Test: NCI-60 one-dose screen, 48 h
Settings: 10 µM unless noted
The panel holds about 83,000 compounds, 20% with a hit somewhere; the sample as a whole holds those more often. Calls of active or inactive are those of the source. How the source made its calls: active means growth percent below 10; inactive means the rest.
Classes used: 1 (active), -1 (inactive)

- molecule: "CN1CCN(CCCOc2cccc3nc(Nc4ccc(Cl)c(F)c4)ccc23)CC1"
  class_name: -1
- molecule: "CCN(CC)c1ccc2c(c1)Oc1nc(N)c(C#N)c(N)c1C2Sc1ccc(SC)cc1 (stereo not given)"
  class_name: 1
- molecule: "Cc1cc(C)nc(SC2=C(Nc3ccc(C)c(Cl)c3)C(=O)N(Cc3ccccc3)C2=O)n1"
  class_name: -1
- molecule: "c1csc(C2=NN3C(C2)c2ccccc2OC3c2ccncc2)c1 (stereo not given)"
  class_name: -1
- molecule: "Cn1ccnc1C(=O)/C=C/c1ccc(CC(=O)Nc2ccccc2)cc1"
  class_name: -1

====

Test system: SK-MEL-2 melanoma
Assay: NCI-60 one-dose screen, 48 h (100 = growth as untreated, 0 = no growth, -100 = all killed)
Conditions: 10 µM unless noted
The panel holds about 83,000 compounds, 20% with a hit somewhere; the sample as a whole holds those more often.
In plain terms, low growth, meaning strictly below 80%, gives Satisfied, and everything else gives Not satisfied.

- compound: "CCn1c(O)c(/C=N/NC(=O)C(C)c2ccc(CC(C)C)cc2)sc1=S (centres undefined)"
  class_name: "Satisfied"
- compound: "Cn1cc(C(=O)c2nc(-c3c[nH]c4ccccc34)no2)c2ccccc21"
  class_name: "Satisfied"
- compound: "O=C1/C(=C/c2ccc(OCCCOc3ccc(Cl)cc3)cc2)N=C2SCCCN12"
  class_name: "Not satisfied"
- compound: "O=C(CN(C(=O)Cn1c(=O)n2nnnc2c2ccccc21)c1ccccc1C(F)(F)F)Nc1ccc(C(F)(F)F)cc1"
  class_name: "Not satisfied"
- compound: "N#Cc1nnn(-c2ccc(S(N)(=O)=O)cc2)c1NCC(=O)c1ccccc1"
  class_name: "Not satisfied"
- compound: "CSc1nc(NCCO)c(C#N)c(-c2cccc([N+](=O)[O-])c2)n1"
  class_name: "Not satisfied"
- compound: "O=C(/C=C/c1ccc(C(F)(F)F)cc1)Nc1ccc(C=C2c3ccccc3C(=O)c3ccccc32)cc1"
  class_name: "Satisfied"
- compound: "COc1cccc2c1C(=O)c1c(O)c3c(c(O)c1C2=O)C[C@](O)(C(=O)CO)C[C@H]3O[C@@H]1C[C@@H](NC(=O)CCCCCN(C)C2(c3ccc(F)cc3)CC3CCC2C3)[C@H](O)[C@@H](C)O1 (some centres undefined)"
  class_name: "Satisfied"
